Attribution: PubChem BioAssay (NCATS)

Test system: HB3
Assay: qHTS profiling for inhibitors of Plasmodium falciparum proliferation (AID 504749); note: nearly all actives have a fitted effect of over 60% in size
Details: P. falciparum in erythrocytes, SYBR Green DNA, 72 h; series mostly up to 28.7 µM
Results filed as inconclusive are left out. Calls of active or inactive are those of the source. Calls come from the whole dose curve; as a rule, active = well fitted inhibition curve with a large enough effect; inconclusive = small, poorly fitted or top-dose-only effect; inactive = flat fitted curve, though single readings scatter.
Outcome codes: active, inactive

| entry_smiles | assay_target | group |
| --- | --- | --- |
| NCCc1cnc[nH]1 | HB3 | inactive |
| CN(CCOc1ccc(NS(C)(=O)=O)cc1)CCc1ccc(NS(C)(=O)=O)cc1 | HB3 | inactive |
| CN(Cc1cnc2nc(N)nc(N)c2n1)c1ccc(C(=O)N[C@@H](CCC(=O)O)C(=O)O)cc1 | HB3 | active |
| CN1CCC(=C2c3ccccc3C=Cc3ccccc32)CC1 | HB3 | inactive |
| CC(C)C(=O)Nc1ccc([N+](=O)[O-])c(C(F)(F)F)c1 | HB3 | inactive |
| CCOC(=O)Nc1ccc(NCc2ccc(F)cc2)nc1N | HB3 | active |
| Nc1nc2c(ncn2COC(CO)CO)c(=O)[nH]1 | HB3 | inactive |
| Cc1ccc(-c2cc(C(F)(F)F)nn2-c2ccc(S(N)(=O)=O)cc2)cc1 | HB3 | inactive |
| CCOC(=O)C(C)(C)Oc1ccc(Cl)cc1 | HB3 | inactive |
| CC#C[C@]1(O)CC[C@H]2[C@@H]3CCC4=CC(=O)CCC4=C3[C@@H](c3ccc(N(C)C)cc3)C[C@@]21C | HB3 | active |
| Cc1cc(C(C)(C)C)cc(C)c1CC1=NCCN1 | HB3 | inactive |

###

Quick reference: activity, negative = cell killing of the listed items.
Test: Drug repurposing screens with cells derived from glioblastoma tumor samples (AID 1345199); note: % is set by controls: 0 for no effect and ±100 for the full control effect; nearly all actives have a fitted effect of over 40% in size
Conditions: GBM patient neurospheres viability, ATP luminescence, 48 h; at 46 µM (top of the series); tumour line A
Inconclusive results are not listed. Calls of active or inactive are those of the source. Calls follow the shape of the dose curve; as a rule, active = well fitted inhibition curve with a large enough effect; inconclusive = small, poorly fitted or top-dose-only effect; inactive = flat fitted curve, though single readings scatter.

| entry_smiles | activity, negative = cell killing |
| --- | --- |
| O=c1[nH]cc(F)c(=O)[nH]1 | -11.3% (inactive) |
| CC1(C)O[C@H]2CC(=O)OC[C@]23[C@H]2CC[C@@]4(C)[C@H](c5ccoc5)OC(=O)[C@H]5O[C@]54[C@]2(C)C(=O)C[C@@H]13 | -18.9% (inactive) |
| Cc1cn([C@H]2C=C[C@@H](CO)O2)c(=O)[nH]c1=O | -20.7% (inactive) |
| CC12CC3CC(C)(C1)CC(N)(C3)C2 | 0.163% (inactive) |

###

System: SC27B
Assay: qHTS profiling for inhibitors of Plasmodium falciparum proliferation (AID 504749); note: nearly all actives have a fitted effect of over 60% in size
Conditions: P. falciparum in erythrocytes, SYBR Green DNA, 72 h; series mostly up to 28.7 µM
Inconclusive results are not listed. Activity calls are given as the source filed them. Calls come from the whole dose curve; as a rule, active = well fitted inhibition curve with a large enough effect; inconclusive = small, poorly fitted or top-dose-only effect; inactive = flat fitted curve, though single readings scatter.
Outcomes: 1.0 for active, 0.0 for inactive

| compound | assay_target | group |
| --- | --- | --- |
| Nc1nc2c(ncn2COC(CO)CO)c(=O)[nH]1 | SC27B | 0.0 |
| CN1C(C(=O)Nc2ccccn2)=C(O)c2ccccc2S1(=O)=O | SC27B | 0.0 |
| CC1(CN2CCC(n3c(=O)[nH]c4ccccc43)CC2)OCc2ccccc2-n2cccc21 (stereo unspecified) | SC27B | 1.0 |
| Cc1cn([C@H]2C[C@H](N=[N+]=[N-])[C@@H](CO)O2)c(=O)[nH]c1=O | SC27B | 0.0 |
| CC#C[C@]1(O)CC[C@H]2[C@@H]3CCC4=CC(=O)CCC4=C3[C@@H](c3ccc(N(C)C)cc3)C[C@@]21C | SC27B | 1.0 |
| N[C@@H](Cc1c[nH]c2ccc(O)cc12)C(=O)O | SC27B | 0.0 |
| CS(=O)(=O)CCNCc1ccc(-c2ccc3ncnc(Nc4ccc(OCc5cccc(F)c5)c(Cl)c4)c3c2)o1 | SC27B | 0.0 |
| NCCS(=O)(=O)O | SC27B | 0.0 |
| CCC1(c2ccccc2)C(=O)NCNC1=O | SC27B | 0.0 |
| Cn1c(=O)c2c(ncn2C)n(C)c1=O | SC27B | 0.0 |
| NCCc1cnc[nH]1 | SC27B | 0.0 |
| CN(C)CCOC(c1ccccc1)c1ccccc1 | SC27B | 0.0 |
| NC(=O)NO | SC27B | 0.0 |
| Clc1ccc(C(c2ccccc2Cl)C(Cl)Cl)cc1 (stereo unspecified) | SC27B | 0.0 |
| COc1ccc2[nH]cc(CCNC(C)=O)c2c1 | SC27B | 0.0 |
| COc1ccccc1N1CCN(CC(O)COc2cccc3ccccc23)CC1 (stereo unspecified) | SC27B | 0.0 |
| Cc1ccc(C(=O)Nc2ccc(S(=O)(=O)O)c3cc(S(=O)(=O)O)cc(S(=O)(=O)O)c23)cc1NC(=O)c1cccc(NC(=O)Nc2cccc(C(=O)Nc3cc(C(=O)Nc4ccc(S(=O)(=O)O)c5cc(S(=O)(=O)O)cc(S(=O)(=O)O)c45)ccc3C)c2)c1 | SC27B | 0.0 |
| Nc1nnc(-c2cccc(Cl)c2Cl)c(N)n1 | SC27B | 0.0 |
| CN(C)c1nc(N(C)C)nc(N(C)C)n1 | SC27B | 0.0 |
| CC(C)(C)C(=O)Oc1ccc(S(=O)(=O)Nc2ccccc2C(=O)NCC(=O)O)cc1 | SC27B | 0.0 |
| Clc1ccccc1C(c1ccccc1)(c1ccccc1)n1ccnc1 | SC27B | 1.0 |
| Cc1cc(C(C)(C)C)cc(C)c1CC1=NCCN1 | SC27B | 0.0 |
| C[C@](N)(Cc1ccc(O)c(O)c1)C(=O)O | SC27B | 0.0 |
| Cn1cnc2c1c(=O)[nH]c(=O)n2C | SC27B | 0.0 |
| CC(CCc1ccc(O)cc1)NCCc1ccc(O)c(O)c1 (stereo unspecified) | SC27B | 0.0 |
| CN1CCC(=C2c3ccccc3C=Cc3ccccc32)CC1 | SC27B | 0.0 |
| O=C(Nc1ccc([N+](=O)[O-])cc1Cl)c1cc(Cl)ccc1O | SC27B | 1.0 |
| NC12CC3CC(CC(C3)C1)C2 | SC27B | 0.0 |
| CC(C)Cc1ccc(C(C)C(=O)O)cc1 (stereo unspecified) | SC27B | 0.0 |
| CCOC(=O)Nc1ccc(NCc2ccc(F)cc2)nc1N | SC27B | 1.0 |
| Nc1c2c(nc3ccccc13)CCCC2 | SC27B | 0.0 |
| CS(=O)(=O)Nc1ccc([N+](=O)[O-])cc1Oc1ccccc1 | SC27B | 0.0 |
| O=C(c1ccc(OCCN2CCCCC2)cc1)c1c(-c2ccc(O)cc2)sc2cc(O)ccc12 | SC27B | 1.0 |
| CCCNCC(O)COc1ccccc1C(=O)CCc1ccccc1 (stereo unspecified) | SC27B | 1.0 |
| OCCN1CCN(CCCN2c3ccccc3Sc3ccc(C(F)(F)F)cc32)CC1 | SC27B | 1.0 |
| Cn1c(=O)c2[nH]cnc2n(C)c1=O | SC27B | 0.0 |
| CN(CCOc1ccc(NS(C)(=O)=O)cc1)CCc1ccc(NS(C)(=O)=O)cc1 | SC27B | 0.0 |
| CC(=O)OCC(CCn1cnc2cnc(N)nc21)COC(C)=O | SC27B | 0.0 |
| NS(=O)(=O)c1cc2c(cc1Cl)NCNS2(=O)=O | SC27B | 0.0 |
| NCCCCCC(=O)O | SC27B | 0.0 |
| CC(C)(Oc1ccc(C2CC2(Cl)Cl)cc1)C(=O)O (stereo unspecified) | SC27B | 0.0 |

###

Tested on: NIH3T3
Assay: Cytotoxic Profiling of Annotated Libraries Using Quantitative High-Throughput Screening (AID 1296008); note: % is set by controls: 0 for no effect and ±100 for the full control effect; nearly all actives have a fitted effect of over 60% in size
Conditions: Five cell lines viability, CellTiter-Glo ATP luminescence, 48-72 h; active compounds read low
Inconclusive results are not listed.

| molecule | units_symbol | max response |
| --- | --- | --- |
| CN1CCN(CCCN2c3ccccc3Sc3ccc(Cl)cc32)CC1 | % | -25.1 |
| Cc1ccccc1N1C(=O)c2cc(S(N)(=O)=O)c(Cl)cc2NC1C (stereo unspecified) | % | 4.24 |
| COc1cc2nc(N3CCN(C(=O)c4ccco4)CC3)nc(N)c2cc1OC | % | -23.2 |
| Cc1ccc(-c2cc(C(F)(F)F)nn2-c2ccc(S(N)(=O)=O)cc2)cc1 | % | 4.24 |
| NCCc1cnc[nH]1 | % | -6.9 |
| COc1ccc(C2CNC(=O)C2)cc1OC1CCCC1 (stereo unspecified) | % | -5.87 |

###

Experiment: Quantitative High-Throughput drug screen in 47 multiple myeloma cell lines against the NCATS MIPE library collection: OCIMY5_PLB cell viability assay (AID 1918988); note: nearly all actives have a fitted effect of over 65% in size
Settings: OCI-MY5 myeloma viability, ATP luminescence, 48 h; series mostly up to 45.8 µM
Records with an inconclusive call do not appear. The source made the active and inactive calls. Calls follow the shape of the dose curve; as a rule, active = well fitted cell-killing curve with a large enough effect; inconclusive = small, poorly fitted or top-dose-only effect, or effect the other way; inactive = no such curve, though single readings can be large or run the other way.
Outcomes: Yes (active), No (inactive)

| molecule | group |
| --- | --- |
| Cc1ccccc1N1C(=O)c2cc(S(N)(=O)=O)c(Cl)cc2NC1C (configuration not stated) | No |
| CN1CCC(=C2c3ccccc3CC(=O)c3sccc32)CC1 | Yes |
| CC(COc1ccccc1)N(CCCl)Cc1ccccc1 (configuration not stated) | Yes |
| C[C@H]1c2cccc(O)c2C(O)=C2C(=O)[C@]3(O)C(O)=C(C(N)=O)C(=O)[C@@H](N(C)C)[C@@H]3[C@@H](O)[C@@H]21 | Yes |
| CS(=O)(=O)Nc1ccc([N+](=O)[O-])cc1Oc1ccccc1 | Yes |
| CN(C)CCCN1c2ccccc2CCc2ccc(Cl)cc21 | Yes |
| CC(=O)OCC(CCn1cnc2cnc(N)nc21)COC(C)=O | No |
